pKd listing for selected binders.
Molecular target: MAGI2_4, Q86UL8
Sequence (Q86UL8 772-865): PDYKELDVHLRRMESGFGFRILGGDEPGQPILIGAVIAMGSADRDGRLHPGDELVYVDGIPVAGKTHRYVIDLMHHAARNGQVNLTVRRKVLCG
Experiment: holdup assay
Parameters: key: below the threshold = too weak to quantify, mostly under pKd 3.1 to 4
Conditions: plain residues with an end cap or a label only (N-terminal biotin on a linker: ado-ado)
API doc: respond with a numeric literal and nothing else, no unit.

Before answering, review these 3 worked examples.
BINDER: KLQNPNQSVV [TYRP1, P17643]
pKd: 3.63
--
BINDER: EFKQTSSFLV [JAM1, Q9Y624]
pKd: 4.3
--
BINDER: TKDKVQETQI [LRRC4, Q9HBW1]
pKd: 3.72

get_value(item= QKNKDREYYV [NRXN3, Q9HDB5] , readout=pKd) returns 3.8
